assay: in vivo; design: species or system mice; details: male, NOD.Cg-Rag1tm1Mom Il2rgtm1Wjl/SzJ (NRG), mouse, iv, total radioactivity, Biodistribution: Z138 Tumor
Where a SMILES comes first, the peptide text is derived from it. Bridges are numbered along the chain shown (N, C = ends). [ ]: non-standard residue; d: D form. The star is where a group is joined. X1 = O=C(O)CN1CCN(CC(=O)O)CCN(CC(=O)N[C@@H](CS(=O)(=O)O)C(=O)N[C@@H](CCCCNC(=O)CCCc2ccc(I)cc2)C(=O)*)CCN(CC(=O)O)CC1; 2Nal = N[C@@H](Cc1ccc2ccccc2c1)C(=O)O; Lys(iPr) = CC(C)NCCCC[C@H](N)C(=O)O
ATTRIBUTE MEASURED: tissue uptake at 3 h (%ID/g)
State the answer as a number, implicitly in %ID/g.

Please fill in: tissue uptake at 3 h reported for CC(C)NCCCC[C@H](NC(=O)[C@H]1CCC(=O)N[C@@H](CCCCNC(=O)[C@H](CCCCNC(=O)CCCc2ccc(I)cc2)NC(=O)[C@H](CS(=O)(=O)O)NC(=O)CN2CCN(CC(=O)O)CCN(CC(=O)O)CCN(CC(=O)O)CC2)C(=O)N[C@@H](Cc2ccc(O)cc2)C(=O)N[C@@H](CCCCNC(C)C)C(=O)N[C@H](CCCNC(=N)N)C(=O)N[C@@H](Cc2ccc3ccccc3c2)C(=O)N[C@H](C)C(=O)N1)C(N)=O [[^68Ga]Ga-BL34L11, metal not drawn] (K(X1)Y[Lys(iPr)][dR][2Nal][dA][dE][Lys(iPr)]-NH2; lactam N-7) = 11.3

----------
test: in vivo; set-up: species or system mice; conditions: male, NOD.Cg-Rag1tm1Mom Il2rgtm1Wjl/SzJ (NRG), mouse, iv, total radioactivity, Biodistribution: Kidneys
ATTRIBUTE MEASURED: tissue uptake at 1 h (%ID/g)
State the answer as a number, implicitly in %ID/g.

Please fill in: tissue uptake at 1 h reported for CC(C)NCCCC[C@H](NC(=O)[C@@H]1CCSc2c3cccc([N+](=O)[O-])c3cn2[C@@H](CCCCNC(=O)[C@H](CS(=O)(=O)O)NC(=O)CN2CCN(CC(=O)O)CCN(CC(=O)O)CCN(CC(=O)O)CC2)C(=O)CC(Cc2ccc(O)cc2)C(=O)N[C@@H](CCCCNC(C)C)C(=O)N[C@H](CCCNC(=N)N)C(=O)N[C@@H](Cc2ccc3ccccc3c2)C(=O)N[C@H](C)C(=O)N1)C(N)=O (stereo partly shown) [[^68Ga]Ga-3NOPA-BL34L2, metal not drawn] = 5.66

----------
# tissue uptake at 72 h annotations
assay: in vivo; parameters: species or system mice; conditions: male, NOD.Cg-Rag1tm1Mom Il2rgtm1Wjl/SzJ (NRG), mouse, iv, total radioactivity, Biodistribution: Lungs
Where a SMILES comes first, the peptide text is derived from it. Bridges are numbered along the chain shown (N, C = ends). [ ]: non-standard residue; d: D form. The star is where a group is joined. X3 = O=C(O)CN1CCN(CC(=O)O)CCN(CC(=O)N[C@@H](CS(=O)(=O)O)C(=O)N[C@@H](CCCCNC(=O)CCCc2ccc(Br)cc2)C(=O)*)CCN(CC(=O)O)CC1; X1 = O=C(O)CN1CCN(CC(=O)O)CCN(CC(=O)N[C@@H](CS(=O)(=O)O)C(=O)N[C@@H](CCCCNC(=O)CCCc2ccc(I)cc2)C(=O)*)CCN(CC(=O)O)CC1; 2Nal = N[C@@H](Cc1ccc2ccccc2c1)C(=O)O; Lys(iPr) = CC(C)NCCCC[C@H](N)C(=O)O
State the answer as a number, implicitly in %ID/g.

1. CC(C)NCCCC[C@H](NC(=O)[C@H]1CCC(=O)N[C@@H](CCCCNC(=O)[C@H](CCCCNC(=O)CCCc2ccc(I)cc2)NC(=O)[C@H](CS(=O)(=O)O)NC(=O)CN2CCN(CC(=O)O)CCN(CC(=O)O)CCN(CC(=O)O)CC2)C(=O)N[C@@H](Cc2ccc(O)cc2)C(=O)N[C@@H](CCCCNC(C)C)C(=O)N[C@H](CCCNC(=N)N)C(=O)N[C@@H](Cc2ccc3ccccc3c2)C(=O)N[C@H](C)C(=O)N1)C(N)=O [[^177Lu]Lu-BL34L11, metal not drawn] (K(X1)Y[Lys(iPr)][dR][2Nal][dA][dE][Lys(iPr)]-NH2; lactam N-7): 2.86

Kindly consider the entry below.
Please fill in: tissue uptake at 72 h reported for CC(C)NCCCC[C@H](NC(=O)[C@H]1CCC(=O)N[C@@H](CCCCNC(=O)[C@H](CCCCNC(=O)CCCc2ccc(Br)cc2)NC(=O)[C@H](CS(=O)(=O)O)NC(=O)CN2CCN(CC(=O)O)CCN(CC(=O)O)CCN(CC(=O)O)CC2)C(=O)N[C@@H](Cc2ccc(O)cc2)C(=O)N[C@@H](CCCCNC(C)C)C(=O)N[C@H](CCCNC(=N)N)C(=O)N[C@@H](Cc2ccc3ccccc3c2)C(=O)N[C@H](C)C(=O)N1)C(N)=O [[^177Lu]Lu-BL34L20, metal not drawn] (K(X3)Y[Lys(iPr)][dR][2Nal][dA][dE][Lys(iPr)]-NH2; lactam N-7) = 0.68
